Test system: MTA (present invention)
Assay procedure: Substrate specificity, comparison with ω-amino acid transaminase (Example 7), Enzyme A
Format: biochemical, Pseudomonas fluorescens KNK08-18
Assay context: amino group receptor pyruvic acid 14 mM; donor 14 mM; activity with (S)-α-phenethylamine is 100

{"Compound": "NCCCCN [Putrescine]", "Relative activity, Enzyme A": 0}
{"Compound": "NCCS(=O)(=O)O [Taurine]", "Relative activity, Enzyme A": 0}
{"Compound": "C[C@H](N)c1ccccc1 [(S)-α-phenethylamine, reference compound]", "Relative activity, Enzyme A": 100}
{"Compound": "NCCC(=O)O [β-alanine]", "Relative activity, Enzyme A": 0}

* * *

Tested on: purified enzyme MTA (aminotransferase)
Assay procedure: Specificity for amino donor, 7-methoxy-2-tetralone as amino acceptor (Example 3)
Format: biochemical, Pseudomonas fluorescens KNK08-18
Assay context: amino donor varied, 14 mM (racemic 28 mM); acceptor 14 mM 7-methoxy-2-tetralone; 30° C., 1 hour; activity with (S)-α-phenethylamine is 100

{"Compound": "CCN [n-ethylamine]", "Relative Activity (%)": "6%"}
{"Compound": "CCCC(C)N (racemic) [±2-pentylamine]", "Relative Activity (%)": "60%"}
{"Compound": "C[C@H](N)c1ccccc1 [(S)-α-phenethylamine, reference compound]", "Relative Activity (%)": "100%"}
{"Compound": "NC1CCCCC1 [cyclohexylamine]", "Relative Activity (%)": "22%"}
{"Compound": "COc1ccc(CC(C)N)cc1OC (racemic) [±3′,4′-dimethoxyamphetamine]", "Relative Activity (%)": "88%"}
{"Compound": "NCCc1ccccc1 [β-phenethylamine]", "Relative Activity (%)": "22%"}

* * *

Measured Relative Activity (%) of individual entries
System: purified enzyme MTA (aminotransferase)
Assay procedure: Specificity for amino acceptor, (S)-α-phenethylamine as donor (Examples 5 and 6)
Type: biochemical, Pseudomonas fluorescens KNK08-18
Assay context: Table 3: amino acceptor varied, 14 mM; donor 14 mM (S)-α-phenethylamine; 30° C., 1 hour; activity with pyruvic acid is 100

{"Structure smiles": "CCCC(=O)C(=O)O", "Measurement unit": "%", "Relative Activity (%)": 0.1}
{"Structure smiles": "CCC(=O)C(=O)O", "Measurement unit": "%", "Relative Activity (%)": 2}
{"Structure smiles": "O=C(O)CCC(=O)C(=O)O", "Measurement unit": "%", "Relative Activity (%)": 0}
{"Structure smiles": "CCCC=O", "Measurement unit": "%", "Relative Activity (%)": 18}
{"Structure smiles": "O=Cc1ccccc1", "Measurement unit": "%", "Relative Activity (%)": 2}
